molecular target: HLA-A*29:02; assay: IEDB peptide-MHC binding, purified MHC/competitive/fluorescence; bounds were set here for any values at or beyond the usual limits of such assays; conditions: source organism: Monodelphis domestica
pIC50: −log10 of the molar value.
readout: pIC50

# get_value(readout='pIC50', item= YSLEYFQFVKK )
≤ 4.70

* * *

target: HLA-B*44:02; assay: IEDB peptide-MHC binding, purified MHC/direct/fluorescence; filed as Kd, often an IC50 or EC50 that approximates it; bounds were set here for any values at or beyond the usual limits of such assays; settings: source organism: Cryptosporidium parvum
pKd: −log10 of the molar value.
readout: pKd

# get_value(readout='pKd', item= WLPWIPQLI )
≤ 4.70

* * *

biological target: HLA-B*07:02; experiment: IEDB peptide-MHC binding, purified MHC/direct/fluorescence; filed as Kd, often an IC50 or EC50 that approximates it; bounds were set here for any values at or beyond the usual limits of such assays; conditions: source organism: Influenza A virus (A/chicken/Hunan/fg/2004(H5N1))
pKd: −log10 of the molar value.
readout: pKd

# get_value(readout='pKd', item= YSHGTGTGY )
≤ 4.70

* * *

molecular target: HLA-A*02:06; assay: IEDB peptide-MHC binding, purified MHC/competitive/radioactivity; bounds were set here for any values at or beyond the usual limits of such assays; conditions: source organism: Hepatitis C virus (isolate H77)
readout: pIC50
Answers are plain numbers, as −log10 of the molar value.

Param readout = pIC50; param system = HLA-A*02:06; param query = KLVGLGLNAV ; response: value
8.05

* * *

biological target: HLA-B*18:01; experiment: IEDB peptide-MHC binding, purified MHC/competitive/fluorescence; bounds were set here for any values at or beyond the usual limits of such assays; details: source organism: Monodelphis domestica
pIC50: −log10 of the molar value.
readout: pIC50

# get_value(readout='pIC50', item= YSLEYFQFVKK )
≤ 4.70

* * *

molecular target: HLA-A*31:01; assay: IEDB peptide-MHC binding, purified MHC/direct/fluorescence; filed as Kd, often an IC50 or EC50 that approximates it; bounds were set here for any values at or beyond the usual limits of such assays; details: source organism: Brucella abortus
readout: Kd

1. FSDVSHWWQ
≥ 20 µM

Okay, next one:
# get_value(readout='Kd', item= GYSFSIPGY )
≥ 20 µM

* * *

molecular target: HLA-A*02:03; assay: IEDB peptide-MHC binding, purified MHC/competitive/fluorescence; filed as Kd, often an IC50 or EC50 that approximates it; bounds were set here for any values at or beyond the usual limits of such assays; settings: source organism: Entamoeba histolytica HM-1:IMSS
readout: Kd

# get_value(readout='Kd', item= RSLVCLAPK )
≥ 20 µM

* * *

target: HLA-B*18:01; experiment: IEDB peptide-MHC binding, purified MHC/direct/fluorescence; filed as Kd, often an IC50 or EC50 that approximates it; bounds were set here for any values at or beyond the usual limits of such assays; conditions: source organism: Orthohantavirus negraense
readout: Kd

# get_value(readout='Kd', item= MSRKLHRYI )
≥ 20 µM

* * *

molecular target: HLA-A*02:19; experiment: IEDB peptide-MHC binding, purified MHC/competitive/fluorescence; filed as Kd, often an IC50 or EC50 that approximates it; bounds were set here for any values at or beyond the usual limits of such assays; settings: source organism: Burkholderia pseudomallei K96243
pKd: −log10 of the molar value.
readout: pKd

Param readout = pKd; param system = HLA-A*02:19; param query = SELTVSPPD ; response: value
≤ 4.70

* * *

molecular target: HLA-B*57:01; experiment: IEDB peptide-MHC binding, purified MHC/direct/fluorescence; filed as Kd, often an IC50 or EC50 that approximates it; bounds were set here for any values at or beyond the usual limits of such assays; conditions: source organism: Rickettsia prowazekii
readout: Kd

# get_value(readout='Kd', item= RRNRKALWL )
≥ 20 µM

* * *

molecular target: HLA-A*68:23; assay: IEDB peptide-MHC binding, purified MHC/competitive/fluorescence; filed as Kd, often an IC50 or EC50 that approximates it; bounds were set here for any values at or beyond the usual limits of such assays; conditions: source organism: Staphylococcus aureus subsp. aureus N315
pKd: −log10 of the molar value.
readout: pKd

# get_value(readout='pKd', item= YTIGIGAFY )
≥ 10.00

* * *

target: HLA-B*08:02; experiment: IEDB peptide-MHC binding, purified MHC/direct/fluorescence; filed as Kd, often an IC50 or EC50 that approximates it; bounds were set here for any values at or beyond the usual limits of such assays; settings: source organism: dengue virus type 3
readout: Kd (nM)
Numbers only, in nM.

# get_value(readout='Kd', item= TLKRRSWPL )
88

* * *

Would you kindly list Kd for each of these sequences?
molecular target: HLA-A*68:02; test: IEDB peptide-MHC binding, purified MHC/competitive/radioactivity; filed as Kd, often an IC50 or EC50 that approximates it; bounds were set here for any values at or beyond the usual limits of such assays; settings: source organism: Homo sapiens

Previously resolved entries follow.
1) LLQEENRQKL
≥ 60 µM
2) ELVENGKKV
6.35 µM
3) ELESQISEL
≥ 60 µM

# get_value(readout='Kd', item= NMDPLNDNI )
≥ 85.7 µM

* * *

target: HLA-A*24:02; experiment: IEDB peptide-MHC binding, purified MHC/competitive/fluorescence; bounds were set here for any values at or beyond the usual limits of such assays; conditions: source organism: Vaccinia virus WR
readout: pIC50
Numbers only, as −log10 of the molar value.

Previously resolved entries follow.
1) INVEYRFLV
5.24
2) KMDNGTLEF
5.97
3) SLFTEQAFY
4.51

# return pIC50 for each item in the list
1. LPWTKISET
2. YRFLVINRL

4.18
6.05

* * *

molecular target: HLA-B*57:01; assay: IEDB peptide-MHC binding, purified MHC/competitive/radioactivity; filed as Kd, often an IC50 or EC50 that approximates it; bounds were set here for any values at or beyond the usual limits of such assays; settings: source organism: Dengue virus 4 Philippines/H241/1956
readout: pKd
Numbers only, as −log10 of the molar value.

# get_value(readout='pKd', item= IAVSTANIF )
6.39

* * *

target: HLA-B*15:17; assay: IEDB peptide-MHC binding, purified MHC/competitive/fluorescence; filed as Kd, often an IC50 or EC50 that approximates it; bounds were set here for any values at or beyond the usual limits of such assays; details: source organism: Burkholderia pseudomallei K96243
pKd: −log10 of the molar value.
readout: pKd

# get_value(readout='pKd', item= SELTVSPPD )
≤ 4.70

* * *

Would you kindly list Kd for each of these sequences?
biological target: HLA-A*33:01; assay: IEDB peptide-MHC binding, purified MHC/competitive/radioactivity; filed as Kd, often an IC50 or EC50 that approximates it; bounds were set here for any values at or beyond the usual limits of such assays; settings: source organism: Lassa virus Josiah
Give bare numbers, in µM.

1) FLWTQSLRR
2.9

Okay, next one:
# get_value(readout='Kd', item= SAVIDALPR )
15.3

* * *

biological target: HLA-A*01:01; test: IEDB peptide-MHC binding, purified MHC/competitive/radioactivity; filed as Kd, often an IC50 or EC50 that approximates it; bounds were set here for any values at or beyond the usual limits of such assays; conditions: source organism: Dengue virus 3 Martinique/1243/1999
readout: pKd
Answers are plain numbers, as −log10 of the molar value.

Previously resolved entries follow.
1. LIGNEEFLDY
5.78
2. MTTEDMLTV
5.13

Okay, next one:
# get_value(readout='pKd', item= YMGEDGCWY )
6.75

* * *

molecular target: HLA-A*11:01; experiment: IEDB peptide-MHC binding, purified MHC/competitive/radioactivity; filed as Kd, often an IC50 or EC50 that approximates it; bounds were set here for any values at or beyond the usual limits of such assays; conditions: source organism: Lymphocytic choriomeningitis virus (strain Armstrong)
readout: Kd (nM)
Answers are plain numbers, in nM.

# get_value(readout='Kd', item= KTSSVARLR )
72.8

* * *

target: HLA-B*35:01; assay: IEDB peptide-MHC binding, purified MHC/competitive/fluorescence; filed as Kd, often an IC50 or EC50 that approximates it; bounds were set here for any values at or beyond the usual limits of such assays; details: source organism: Yersinia pestis Nepal516
readout: pKd
Answers are plain numbers, as −log10 of the molar value.

# get_value(readout='pKd', item= CLLSHTLAY )
7.61

* * *

target: HLA-A*26:01; assay: IEDB peptide-MHC binding, purified MHC/competitive/fluorescence; filed as Kd, often an IC50 or EC50 that approximates it; bounds were set here for any values at or beyond the usual limits of such assays; settings: source organism: Cryptosporidium parvum Iowa II
readout: Kd

# get_value(readout='Kd', item= LTAPCDIYV )
≥ 20 µM

* * *

molecular target: HLA-A*24:02; test: IEDB peptide-MHC binding, purified MHC/competitive/radioactivity; filed as Kd, often an IC50 or EC50 that approximates it; bounds were set here for any values at or beyond the usual limits of such assays; details: source organism: Mammarenavirus machupoense
readout: Kd

# get_value(readout='Kd', item= LSSSEPHCA )
≥ 77.5 µM
